Data credit: the supplement of paper PMC8728848

target: Neu5Ac(a2-6)GalNAc; test: glycan array binding signal (z-score within array); higher = stronger binding; settings: glycan notation: IUPAC condensed, linker removed
The full list was thinned out, with the strongest signals kept by preference.
REPORTED ENDPOINT: glycan array binding signal (z-score)
Keep it simple and answer with nothing but the number.

Solved cases below.
Exercise: So what does the record say about glycan array binding signal (z-score) for EULS2 M3 (Oryza sativa) (protein) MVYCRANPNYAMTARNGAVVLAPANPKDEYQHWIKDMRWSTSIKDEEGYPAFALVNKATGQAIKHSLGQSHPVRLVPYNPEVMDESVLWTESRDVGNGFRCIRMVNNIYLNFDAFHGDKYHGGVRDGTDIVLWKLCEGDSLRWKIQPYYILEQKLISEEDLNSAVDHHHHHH ?
Solution: -0.8

Exercise: So what does the record say about glycan array binding signal (z-score) for AAL (Agrocybe aegerita), Q6WY08 (protein) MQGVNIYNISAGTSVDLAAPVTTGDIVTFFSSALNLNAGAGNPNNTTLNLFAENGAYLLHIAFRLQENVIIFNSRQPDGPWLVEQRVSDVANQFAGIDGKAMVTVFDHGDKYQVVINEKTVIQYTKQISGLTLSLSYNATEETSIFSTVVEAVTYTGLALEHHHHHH ?
Solution: -0.164

New cases:
Exercise: So what does the record say about glycan array binding signal (z-score) for LFA (Limax flavus) (protein) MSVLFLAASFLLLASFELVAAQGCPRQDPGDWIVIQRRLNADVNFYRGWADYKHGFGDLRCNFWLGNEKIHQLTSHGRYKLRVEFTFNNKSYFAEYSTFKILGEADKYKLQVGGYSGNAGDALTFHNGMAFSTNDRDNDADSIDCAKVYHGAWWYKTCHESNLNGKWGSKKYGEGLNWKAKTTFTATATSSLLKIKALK ?
Solution: -0.345
